// reported pIC50 for each item listed
# Target under test: human DGKα (Homo sapiens, UniProt P23743)
# Construct: purchased Carna Biosciences'; inferred from the same paragraph's 'obtained from Carna Biosciences')
# Sequence (P23743 whole entry): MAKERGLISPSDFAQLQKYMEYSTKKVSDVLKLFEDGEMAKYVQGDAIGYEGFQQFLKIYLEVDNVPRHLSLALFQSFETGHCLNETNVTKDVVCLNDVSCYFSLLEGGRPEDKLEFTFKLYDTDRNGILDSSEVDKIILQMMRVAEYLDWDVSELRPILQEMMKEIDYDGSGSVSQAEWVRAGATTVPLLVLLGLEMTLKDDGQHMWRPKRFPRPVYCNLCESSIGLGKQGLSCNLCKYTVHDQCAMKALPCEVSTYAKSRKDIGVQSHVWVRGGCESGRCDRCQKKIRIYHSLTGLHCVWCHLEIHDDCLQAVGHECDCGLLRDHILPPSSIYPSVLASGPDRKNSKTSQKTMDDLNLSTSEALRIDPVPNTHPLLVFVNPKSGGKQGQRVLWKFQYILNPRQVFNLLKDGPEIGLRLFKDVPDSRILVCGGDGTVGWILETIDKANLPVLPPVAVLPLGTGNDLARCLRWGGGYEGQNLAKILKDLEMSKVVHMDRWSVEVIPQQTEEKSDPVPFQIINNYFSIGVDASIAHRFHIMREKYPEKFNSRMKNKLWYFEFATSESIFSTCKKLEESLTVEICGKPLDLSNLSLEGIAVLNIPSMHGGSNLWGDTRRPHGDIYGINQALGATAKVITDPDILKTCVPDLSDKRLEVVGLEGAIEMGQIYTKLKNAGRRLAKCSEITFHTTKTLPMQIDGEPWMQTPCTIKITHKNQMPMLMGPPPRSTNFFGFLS
# Assay notes: DGKα Biochemical Activity Assay (ADP-Glo)
Here pIC50 is given on a logarithmic scale as minus log10 of the concentration in mol/L.

{"Compound": "O=c1nc(N2CCCCc3c(Br)cncc32)c2cc(F)ccc2[nH]1", "Numeric readout": 7.31}
{"Compound": "[2H]C([2H])([2H])n1c(=O)nc(N(CC(F)F)c2cc(F)cc(C#CC(C)(C)C#N)c2)c2c(F)c(F)ccc21", "Numeric readout": 8.48}
{"Compound": "CC1(C#Cc2nccc(N(CC(F)F)c3nc(=O)[nH]c4cccc(F)c34)c2F)CC1", "Numeric readout": 8.22}
{"Compound": "O=c1nc(N2CCOCc3c(C#CC4CC4)cccc32)c2c(F)ccc(F)c2[nH]1", "Numeric readout": 8.02}

Give a short answer stating reported pIC50 for `[2H]C([2H])([2H])n1c(=O)nc(N2CCCc3c2ccnc3C#CC2(C(F)(F)F)CC2)c2c(F)cccc21` .
8.05

Please give measured pIC50 of the following entry: `[2H]C([2H])([2H])n1c(=O)nc(N2CCOCc3c(C#CC(C)(C)NC(=O)C4(C(F)F)CC4)cccc32)c2c(F)cccc21`
8.20

----------
# Target under test: human DGKα (Homo sapiens)
# Construct: inferred from the same paragraph's 'obtained from Carna Biosciences')
# Assay notes: DGKα Biochemical Activity Assay (ADP-Glo)
1 if IC50 is below 20 nM. -1 if not; exact matches included in -1.

Use the examples below as a reference point.
{"Molecule": "CC1(C#Cc2cccc3c2COCCN3c2nc(=O)[nH]c3c(F)cc(F)cc23)CC1 [Example 105]", "Target under test": "human DGKα (Homo sapiens)", "Assigned label": 1}
{"Molecule": "[2H]C([2H])([2H])n1c(=O)nc(N(CC(F)F)c2ccnc(C#CC3(C(F)(F)F)CC3)c2F)c2c(F)cccc21 [Example 124]", "Target under test": "human DGKα (Homo sapiens)", "Assigned label": 1}
{"Molecule": "[2H]C([2H])([2H])n1c(=O)nc(N(CC(F)F)c2ccnc(C#CC(C)(C)C#N)c2)c2c(F)c(F)ccc21 [Example 79]", "Target under test": "human DGKα (Homo sapiens)", "Assigned label": 1}
{"Molecule": "O=c1nc(N(CC(F)F)c2cccc(C#CC3(C(F)F)CC3)c2F)c2c(F)cccc2[nH]1 [Example 62]", "Target under test": "human DGKα (Homo sapiens)", "Assigned label": -1}

Please state whether IC50 is below 20 nM for CN(c1cc(F)cc(C#CC2(C(F)(F)F)CC2)c1)c1nc(=O)[nH]c2cc(Cl)ccc12 [Example 14]
-1

Consider the molecule CCn1c(=O)nc(N(CC(F)F)c2cc(F)cc(C#CC(C)(C)O)c2)c2c(F)cccc21 [Example 37] . Is its IC50 strictly less than 20 nM?
-1

Item Cn1c(=O)nc(N(CC(F)F)c2cccc(C#CC3(C(F)(F)F)CC3)n2)c2cc(F)ccc21 [Example 47] : IC50 beneath 20 nM, strictly?
1

----------
# Target under test: human DGKα (Homo sapiens, UniProt P23743)
# Construct: inferred from the same paragraph's 'obtained from Carna Biosciences')
# Assay notes: DGKα Biochemical Activity Assay (ADP-Glo)
Test readout: IC50 (nM)
I only need the number, in nM, no unit after it.

Consider the following illustrative entries.
{"Smiles entry": "[2H]C([2H])([2H])n1c(=O)nc(N2CCCc3c(C#CC(C)(C)O)cccc32)c2c(F)cccc21", "Target under test": "human DGKα (Homo sapiens, UniProt P23743)", "Test readout": "IC50", "Unit annotation": "nM", "Numeric readout": 5.82}
{"Smiles entry": "CC(C)(O)C#Cc1cccc2c1CCCCN2c1nc(=O)[nH]c2cccc(F)c12", "Target under test": "human DGKα (Homo sapiens, UniProt P23743)", "Test readout": "IC50", "Unit annotation": "nM", "Numeric readout": 3.6}
{"Smiles entry": "[2H]C([2H])([2H])n1c(=O)nc(N(CC(F)F)c2cc(F)cc(C#CC(C)(C)O)c2)c2c(F)c(F)ccc21", "Target under test": "human DGKα (Homo sapiens, UniProt P23743)", "Test readout": "IC50", "Unit annotation": "nM", "Numeric readout": 10.7}

From here, focus on the item given below.
Find the measured IC50 of `[2H]C([2H])([2H])n1c(=O)nc(N2CCOCc3c(C#CC(C)(C)O)cccc32)c2c(F)c(F)ccc21` and report it.
4.37

----------
# Target under test: human DGKα (Homo sapiens)
# Construct: inferred from the same paragraph's 'obtained from Carna Biosciences')
# Assay notes: DGKα Biochemical Activity Assay (ADP-Glo)
Test readout: IC50 (nM)
Just the number please, in nM, no unit attached.

The following compounds have reported results that may help.
{"Smiles entry": "CC(C)(C#Cc1nccc2c1CCCN2c1nc(=O)[nH]c2ccc(F)c(F)c12)C(F)(F)F", "IC50 [nM]": 23.2}
{"Smiles entry": "O=c1nc(N(CC(F)F)c2cc(F)cc(C#CC3(C(F)(F)F)CC3)c2)c2cc(F)ccc2[nH]1", "IC50 [nM]": 213}
{"Smiles entry": "[2H]C([2H])([2H])n1c(=O)nc(N(CC(F)F)c2cc(F)cc(-c3cnc(C4CC4)cn3)c2)c2c(F)c(F)ccc21", "IC50 [nM]": 7.57}

Tell us which IC50 value is on record for `[2H]C([2H])([2H])n1c(=O)nc(N2CCOCc3c(C#CC(C)(C)C#N)cccc32)c2c(F)cccc21`
2.1

----------
# Target under test: human DGKα (Homo sapiens, UniProt P23743)
# Construct: inferred from the same paragraph's 'obtained from Carna Biosciences')
# Assay notes: DGKα Biochemical Activity Assay (ADP-Glo)
pIC50: −log10 of the molar value.
Entry flag: true (1) if pIC50 reaches 8; false (0) if it does not.

Would you please look over these solved cases?
{"Smiles entry": "CN(c1cccc(-c2ccc(C3CC3)cc2)c1)c1nc(=O)[nH]c2cc(Cl)ccc12", "Assigned label": "false (0)"}
{"Smiles entry": "CC1(C#Cc2cccc(N(CC(F)F)c3nc(=O)[nH]c4cccc(F)c34)c2F)CC1", "Assigned label": "false (0)"}
{"Smiles entry": "O=c1nc(N(CC(F)F)c2cc(F)cc(C#CC3(C(F)(F)F)CC3)c2)c2c(F)c(F)ccc2[nH]1", "Assigned label": "false (0)"}

Note: attention shifts to another entry.
Determine whether this molecule has pIC50 no lower than 8: `[2H]C([2H])([2H])n1c(=O)nc(N(CC(F)F)c2ccnc(C#CC3(C)CC3)c2)c2c(F)c(F)ccc21`
true (1)

----------
# Target under test: human DGKα (Homo sapiens)
# Construct: inferred from the same paragraph's 'obtained from Carna Biosciences')
# Assay notes: DGKα Biochemical Activity Assay (ADP-Glo);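 note: recombinant enzyme converting diacylglycerol in lipid micelles with ATP, ADP formed detected by luminescence, IC50 from a four-parameter nonlinear fit, geometric mean across experiments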
Test readout: IC50 (nM)
Your answer should be a plain number; it is taken to be in nM.

{"Compound": "CC(F)(F)C1(C#Cc2nccc3c2CCCN3c2nc(=O)[nH]c3cccc(F)c23)CC1 [Example 132]", "Target under test": "human DGKα (Homo sapiens)", "Test readout": "IC50", "Unit annotation": "nM", "Numeric readout": 66.1}
{"Compound": "[2H]C([2H])([2H])n1c(=O)nc(N2CCOCc3c(C#CC4(C(F)(F)F)CCN(C)C4)cccc32)c2c(F)cccc21 (stereo not shown) [Example 170]", "Target under test": "human DGKα (Homo sapiens)", "Test readout": "IC50", "Unit annotation": "nM", "Numeric readout": 25.7}
{"Compound": "[2H]C([2H])([2H])n1c(=O)nc(N(CC(F)F)c2ccnc(C#CC(C)(C)O)c2F)c2c(F)cccc21 [Example 128]", "Target under test": "human DGKα (Homo sapiens)", "Test readout": "IC50", "Unit annotation": "nM", "Numeric readout": 7.36}
{"Compound": "CC(C)(O)C#Cc1cccc2c1COCCN2c1nc(=O)[nH]c2c(F)cc(F)cc12 [Example 103]", "Target under test": "human DGKα (Homo sapiens)", "Test readout": "IC50", "Unit annotation": "nM", "Numeric readout": 8.98}
{"Compound": "[2H]C([2H])([2H])n1c(=O)nc(N2CCCc3c2ccnc3C#CC(C)(C)C#N)c2c(F)c(F)ccc21 [Example 140]", "Target under test": "human DGKα (Homo sapiens)", "Test readout": "IC50", "Unit annotation": "nM", "Numeric readout": 15.3}

Supply recorded IC50 for CC(C)(O)C#Cc1cc(F)cc(N(CC(F)F)c2nc(=O)[nH]c3ccc(F)c(F)c23)c1 [Example 65] here.
13.4

# return recorded IC50 for input [2H]C([2H])([2H])n1c(=O)nc(N(CC(F)F)c2cc(F)cc(C#CC3(C(F)(F)F)CC3)c2)c2cc(F)ccc21 [Example 51]
35.3

Data provenance is patent US11932634B2.
